Tested on: Vero
assay explanation: Cytotoxicity against african green monkey Vero cells after 20 hrs by MTS assay
Format: cell-based
details: Chlorocebus sabaeus
Record form. Attribute: IC50. Fill in for each entry.
State the answer as a number, implicitly in µM.

Query: Endpoint output: IC50 of NC[C@@H]1C[C@H](c2cc3ccccc3c3ccccc23)N(Cc2ccccc2)O1 (racemic) . Value?
Response: 132

Query: Sample CN1O[C@H](CN)C[C@@H]1c1ccc2ccc3cccc4ccc1c2c34 (racemic) — what was its IC50?
Response: 102

Query: What does the record list as IC50 for NC[C@H]1C[C@H](c2cc3ccccc3c3ccccc23)N(Cc2ccccc2)O1 (racemic) ?
Response: 140

Query: // returns reported IC50 for input CN1O[C@@H](CN)C[C@@H]1c1ccc2ccc3cccc4ccc1c2c34 (racemic)
Response: 110

Query: Using the record for CN1O[C@H]2C(=O)NC(=O)[C@H]2[C@@H]1c1ccc2ccc3cccc4ccc1c2c34 (racemic) , report its IC50.
Response: 150
